B1: VPS39 (parent)
chain: ITEEKVCMVCKKKIGNSAFARYPN

# Variants of: B1
# ASSAY_SUMMARY: protein stability index of a GFP-peptide fusion (GPS, HEK-293T) (PSI 1-6); higher = more stable;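 note: lentivirally expressed fusions sorted by FACS into six bins by GFP to DsRed ratio, PSI derived from sequencing read proportions per bin multiplied by bin number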
# CONDITION_DETAILS: c terminus: a fixed tail appended
ENDPOINT_NAME: protein stability index

>  <VARIANT>
A20L

>  <RECORDED_MEASUREMENT>
2.09

$$$$
>  <VARIANT>
V9R

>  <RECORDED_MEASUREMENT>
3.61

$$$$
>  <VARIANT>
T2W

>  <RECORDED_MEASUREMENT>
1.77

$$$$
>  <VARIANT>
T2L

>  <RECORDED_MEASUREMENT>
3.59

$$$$
>  <VARIANT>
Y22V

>  <RECORDED_MEASUREMENT>
2.38

$$$$
>  <VARIANT>
R21C

>  <RECORDED_MEASUREMENT>
2.5

$$$$
>  <VARIANT>
K12S

>  <RECORDED_MEASUREMENT>
2.36

$$$$
>  <VARIANT>
K5Y

>  <RECORDED_MEASUREMENT>
1.55

$$$$
>  <VARIANT>
K11E

>  <RECORDED_MEASUREMENT>
2.75

$$$$
>  <VARIANT>
G15F

>  <RECORDED_MEASUREMENT>
2.35

$$$$
>  <VARIANT>
A18S

>  <RECORDED_MEASUREMENT>
3.04

$$$$
>  <VARIANT>
K12C

>  <RECORDED_MEASUREMENT>
2.93

$$$$
>  <VARIANT>
K12E

>  <RECORDED_MEASUREMENT>
2.46

$$$$
>  <VARIANT>
C7G

>  <RECORDED_MEASUREMENT>
2.46

$$$$
>  <VARIANT>
T2F

>  <RECORDED_MEASUREMENT>
2.9

$$$$
>  <VARIANT>
A18V

>  <RECORDED_MEASUREMENT>
2

$$$$
>  <VARIANT>
K5N

>  <RECORDED_MEASUREMENT>
3.66

$$$$
>  <VARIANT>
P23Q

>  <RECORDED_MEASUREMENT>
2.26

$$$$
>  <VARIANT>
V6P

>  <RECORDED_MEASUREMENT>
2.88

$$$$
>  <VARIANT>
S17K

>  <RECORDED_MEASUREMENT>
2.1

$$$$
>  <VARIANT>
V9D

>  <RECORDED_MEASUREMENT>
2.71

$$$$
>  <VARIANT>
K12P

>  <RECORDED_MEASUREMENT>
2.25

$$$$
>  <VARIANT>
V9Q

>  <RECORDED_MEASUREMENT>
3.4

$$$$
>  <VARIANT>
I14G

>  <RECORDED_MEASUREMENT>
2.3

$$$$
>  <VARIANT>
N16F

>  <RECORDED_MEASUREMENT>
1.58

$$$$
>  <VARIANT>
C7F

>  <RECORDED_MEASUREMENT>
2.78

$$$$
>  <VARIANT>
R21V

>  <RECORDED_MEASUREMENT>
2.59

$$$$
>  <VARIANT>
I1K

>  <RECORDED_MEASUREMENT>
2.6

$$$$
>  <VARIANT>
A18I

>  <RECORDED_MEASUREMENT>
1.81

$$$$
>  <VARIANT>
A20Y

>  <RECORDED_MEASUREMENT>
2.31

$$$$
>  <VARIANT>
C7M

>  <RECORDED_MEASUREMENT>
2.79

$$$$
>  <VARIANT>
S17A

>  <RECORDED_MEASUREMENT>
2.19

$$$$
>  <VARIANT>
V9L

>  <RECORDED_MEASUREMENT>
2.83

$$$$
>  <VARIANT>
N16L

>  <RECORDED_MEASUREMENT>
2.05

$$$$
>  <VARIANT>
S17R

>  <RECORDED_MEASUREMENT>
2.62

$$$$
>  <VARIANT>
K11V

>  <RECORDED_MEASUREMENT>
2.23

$$$$
>  <VARIANT>
E4N

>  <RECORDED_MEASUREMENT>
2.12

$$$$
>  <VARIANT>
K11F

>  <RECORDED_MEASUREMENT>
1.54

$$$$
>  <VARIANT>
K13Q

>  <RECORDED_MEASUREMENT>
2.6

$$$$
>  <VARIANT>
F19Q

>  <RECORDED_MEASUREMENT>
3.58

$$$$
>  <VARIANT>
P23S

>  <RECORDED_MEASUREMENT>
2.56

$$$$
>  <VARIANT>
V9M

>  <RECORDED_MEASUREMENT>
2.69

$$$$
>  <VARIANT>
C10A

>  <RECORDED_MEASUREMENT>
3.13

$$$$
>  <VARIANT>
I1C

>  <RECORDED_MEASUREMENT>
2.24

$$$$
>  <VARIANT>
E4G

>  <RECORDED_MEASUREMENT>
1.5

$$$$
>  <VARIANT>
I14A

>  <RECORDED_MEASUREMENT>
2.56

$$$$
